assay: mitochondrial membrane potential change in A549 cells, profiling panel, cell-based, JC-1 fluorescence, basal, 24 h, 100 nL (AID 1138); conditions: higher = more signal;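 also: A549 lung adenocarcinoma cells under basal conditions with no added stimulus; test concentration not given here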

# molecule, z-score
measured = [
    ("CCOC(=O)CCN1C(=O)[C@H]2[C@H]3[C@H](O)[C@H](O)CC(=NNC(=O)OCC)[C@@H]3CC[C@H]2C1=O", 0.167),
    ("C#CCCCON=C1C[C@@H](O)[C@@H](O)[C@@H]2[C@@H]3C(=O)N(C4CCCCC4)C(=O)[C@@H]3CC[C@H]12", 0.83),
    ("COC(=O)[C@H](C)NC(=O)CCC1CC(OC(=O)NCCc2ccc(F)cc2)CC2(CCCC(COC(=O)NCCCN3CCCC3=O)O2)O1 (stereo partly drawn)", -0.498),
    ("CO[C@H]1COC(=O)CC=C[C@@H](C)COC(=O)[C@@H](OCc2ccccc2)C=C[C@@H]1C", 1.8),
    ("C[C@@H](c1ccccc1)N1C(=O)[C@H]2[C@H]3[C@H](O)[C@H](O)CC(=O)[C@@H]3CC[C@H]2C1=O", 0.792),
    ("CO[C@@H]1COC(=O)CC=C[C@H](C)COC(=O)[C@H](C)NC(=O)CC=C[C@H]1C", 0.521),
    ("CC(C)C(=O)N[C@@H]1CCCN1C(=O)C=Cc1ccccc1", 1.81),
    ("COc1ccc(COC(=O)NN=C2C[C@@H](O)[C@@H](O)[C@@H]3[C@@H]4C(=O)N(C(C)(C)C)C(=O)[C@@H]4CC[C@H]23)cc1", 0.453),
]

---

assay: small-molecule microarray binders of probe aXIP, primary screen, biochemical, NeuroSMM set, 635/667 nm fluorescence (AID 1119); conditions: higher = more signal, called active from +8 up or from −8 down;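 also: probe is the protein aXip251-270 applied at 1 µg/mL to compound-printed slides; binding of probe to printed compounds measured as 667 nm fluorescence plus signal to noise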
// label = true (1) if composite Z-score is not less than -0.07, otherwise false (0)

# compound, categoryLabel
records = [
    ("COC(=O)[C@H](C)NC(=O)CCC1CC(OC(=O)NCCc2ccc(F)cc2)CC2(CCCC(COC(=O)NCCCN3CCCC3=O)O2)O1 (stereo partly drawn)", "true (1)"),
    ("O=C1[C@H]2[C@H]3[C@H](O)[C@H](O)CC(=NOCc4ccccc4)[C@H]3CC[C@H]2C(=O)N1Cc1ccccc1", "false (0)"),
    ("C[C@@H](ON=C1[C@H]2CCn3c(=O)n(-c4ccccc4)c(=O)n3[C@H]2[C@H](O)[C@@H]2O[C@H]12)c1cn([C@H](CO)Cc2ccccc2)nn1", "true (1)"),
    ("CCOC(=O)NN=C1C[C@@H](O)[C@@H](O)[C@@H]2[C@@H]3C(=O)N(Cc4ccc5c(c4)OCO5)C(=O)[C@@H]3CC[C@@H]12", "true (1)"),
    ("C#CCCCON=C1C[C@@H](O)[C@@H](O)[C@@H]2[C@@H]3C(=O)N(C4CCCCC4)C(=O)[C@@H]3CC[C@H]12", "false (0)"),
    ("CC(C)C(=O)N[C@@H]1CCCN1C(=O)C=Cc1ccccc1", "true (1)"),
    ("CO[C@@H]1C=CCC(=O)N2CCC[C@H]2C(=O)OC[C@H](C)C(=O)OC[C@H]1C", "true (1)"),
    ("C=C(C)C(=O)OC[C@@H]1CN2[C@@H](CC[C@@H](C)[C@@H]2c2ccc(Br)cc2)C(=O)O1", "true (1)"),
]
